Test system: pERK and pAKt
Experiment Notes: Akt and ERK1/2 phosphorylations in RPTEC cells
Assay type: cell-based
Condition Notes: Homo sapiens, basal conditions, read-out: EC50 induction of pERK and pAKt in RPTEC
Test Readout: EC50

Provide the documented EC50 with pERK and pAKt as the system for Cc1cc(-c2nc3cnc(Oc4cccc(Cl)c4)nc3o2)cc(C)c1OCC(=O)O [Compound A]
~3 µM

----------
Listed here: items and their measured pEC50.
Target Entity: hS1P1-G-fusion (Homo sapiens, UniProt P21453)
Construct: fused on or other part: Modified G-protein alpha subunit (G alpha i4qi4) fused to the receptor's C-terminus to force coupling to calcium release
Sequence (P21453 whole entry, the tested form may be a part): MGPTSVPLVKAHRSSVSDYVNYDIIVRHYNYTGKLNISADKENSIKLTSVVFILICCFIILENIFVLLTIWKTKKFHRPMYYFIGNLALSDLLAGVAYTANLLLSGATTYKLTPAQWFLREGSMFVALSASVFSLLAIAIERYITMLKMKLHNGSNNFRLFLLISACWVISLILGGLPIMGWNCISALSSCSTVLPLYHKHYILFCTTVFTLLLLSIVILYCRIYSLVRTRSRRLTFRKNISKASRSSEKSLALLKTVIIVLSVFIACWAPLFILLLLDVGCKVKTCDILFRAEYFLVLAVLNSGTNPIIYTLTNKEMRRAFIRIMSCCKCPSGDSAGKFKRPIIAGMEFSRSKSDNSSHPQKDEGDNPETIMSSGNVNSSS
Experiment Notes: Calcium mobilization (FlipR) assay in CHO cells
Condition Notes: CHO over-expressing human S1P1 (G-fusion); 0% proteins in assay media
Lab note — pEC50 values are minus log10 of concentrations in M.

Some molecules with known pEC50 results, for comparison:
>>> readout_value("CCCCCCCCCCCCC/C=C/[C@@H](O)[C@@H](N)COP(=O)(O)O [Compound S1P, Sphingosine-1-phosphate]")
8.12
>>> readout_value("Cc1cc(-c2nc3cnc(Oc4cccc(Cl)c4)nc3o2)cc(C)c1OCC(=O)O [Compound A]")
7.51

Now look at this one.
Would you mind telling me what pEC50 value was observed for CCc1cc(/C(C)=N/OCc2ccc(C3CCCCC3)c(C(F)(F)F)c2)ccc1CN1CC(C(=O)O)C1 [BAF-312] ?
8.55
